Reference source for all entries: patent US20250129087A1

test: pH of the filtrated solutions (pH indication paper); assay type: physicochemical; details: pH of the filtrated solution
observation.type: pH

Below are worked cases with known answers.
CN1C(=O)c2c(nn(Cc3ccc(-c4cccc(F)n4)cc3)c2Nc2ccccc2)N2C1=N[C@@H]1CCC[C@@H]12.Cl [HCl Salt 2] : 4-5
CN1C(=O)c2c(nn(Cc3ccc(-c4cccc(F)n4)cc3)c2Nc2ccccc2)N2C1=N[C@@H]1CCC[C@@H]12.O=C(O)c1ccccc1O [Salicylate Salt 2] : 4-5

From here, focus on the item given below.
Q: Which measured pH value corresponds to CN1C(=O)c2c(nn(Cc3ccc(-c4cccc(F)n4)cc3)c2Nc2ccccc2)N2C1=N[C@@H]1CCC[C@@H]12.CN1C(=O)c2c(nn(Cc3ccc(-c4cccc(F)n4)cc3)c2Nc2ccccc2)N2C1=N[C@@H]1CCC[C@@H]12.O=C(O)CCCCC(=O)O [Adipate Salt 2] ?
Ans: 4-5

---

assay: pH of the filtrated solutions (pH indication paper); format: physicochemical; settings: pH of the filtrated solution
Hi there, I'd appreciate the recorded pH for every entry that follows.

Previously resolved entries follow.
CN1C(=O)c2c(nn(Cc3ccc(-c4cccc(F)n4)cc3)c2Nc2ccccc2)N2C1=N[C@@H]1CCC[C@@H]12.O=C(O)C(O)C(O)C(=O)O [Tartrate Salt 1] : 4-5
CN1C(=O)c2c(nn(Cc3ccc(-c4cccc(F)n4)cc3)c2Nc2ccccc2)N2C1=N[C@@H]1CCC[C@@H]12.O=C(O)CCCCC(=O)O [Adipate Salt 3] : 4-5

Q: Fill in the blank: the reported pH of CN1C(=O)c2c(nn(Cc3ccc(-c4cccc(F)n4)cc3)c2Nc2ccccc2)N2C1=N[C@@H]1CCC[C@@H]12.O=C(O)C(Cl)Cl [Dichloroacetate Salt 1] is ____.
Ans: 4-5
